Origin of values: the supplement of paper PMC10065799

# target.desc: EPHB2 (UniProt P29323)
# Sequence (P29323 whole entry, looked up): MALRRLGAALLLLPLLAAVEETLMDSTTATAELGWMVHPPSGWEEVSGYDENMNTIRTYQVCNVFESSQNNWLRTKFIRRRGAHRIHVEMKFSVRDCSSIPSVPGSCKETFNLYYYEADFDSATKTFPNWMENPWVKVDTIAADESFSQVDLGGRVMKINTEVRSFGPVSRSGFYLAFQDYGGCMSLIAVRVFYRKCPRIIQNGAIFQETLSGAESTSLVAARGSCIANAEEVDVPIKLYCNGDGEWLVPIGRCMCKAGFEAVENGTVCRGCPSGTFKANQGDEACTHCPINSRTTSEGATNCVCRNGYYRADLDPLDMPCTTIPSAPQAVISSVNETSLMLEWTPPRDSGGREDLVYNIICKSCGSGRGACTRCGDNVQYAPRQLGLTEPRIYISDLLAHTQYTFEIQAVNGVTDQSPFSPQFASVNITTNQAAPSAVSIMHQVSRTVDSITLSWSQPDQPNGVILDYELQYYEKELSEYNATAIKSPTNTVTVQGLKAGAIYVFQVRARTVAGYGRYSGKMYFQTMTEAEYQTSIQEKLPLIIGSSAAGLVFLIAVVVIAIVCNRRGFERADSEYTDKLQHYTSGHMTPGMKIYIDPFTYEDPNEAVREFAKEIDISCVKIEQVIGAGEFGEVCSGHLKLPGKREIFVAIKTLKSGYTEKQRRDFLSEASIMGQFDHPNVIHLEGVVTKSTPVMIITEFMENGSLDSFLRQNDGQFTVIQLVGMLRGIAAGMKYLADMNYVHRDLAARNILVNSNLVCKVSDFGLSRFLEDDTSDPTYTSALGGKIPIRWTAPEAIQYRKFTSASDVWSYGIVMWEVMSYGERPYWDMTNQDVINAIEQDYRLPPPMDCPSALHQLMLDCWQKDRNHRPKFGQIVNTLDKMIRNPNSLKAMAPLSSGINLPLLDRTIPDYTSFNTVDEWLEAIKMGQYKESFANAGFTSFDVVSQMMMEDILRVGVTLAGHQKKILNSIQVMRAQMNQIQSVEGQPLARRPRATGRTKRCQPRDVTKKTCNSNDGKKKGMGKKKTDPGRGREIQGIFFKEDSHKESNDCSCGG
# experimental.protocol: phosphorylation enrichment, bacterial display (enrichment ratio); higher = better substrate or ligand; peptides without Tyr show the background;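 also: 11-residue human phosphosite peptides and single-mutation variants displayed on the E. coli surface, counted by deep sequencing, each peptide's frequency after selection divided by its frequency in the unselected input library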;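 also: frequency after pTyr selection over input frequency; kinase dosed for 20-30% of maximal phosphorylation in three min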
phosphorylation enrichment: recorded values
Could you respond with only the numeric value?

MTRDIYRASYY [ALK_Y1278_A1274T]	0.579

phosphorylation enrichment reading for LQLLGDRPVFS [CHST6_Y358_Y358D_YF] : 0.487

// ETMNKYDLSGR [MYEF2_Y164] : phosphorylation enrichment value = 0.391

Measured phosphorylation enrichment of KGNMYYENSYA [EGFR_Y113_R108K] : 0.593

Looking up NWGKKYPTCNS [PTPRZ1_Y53] , I found its phosphorylation enrichment recorded as 0.558

Kindly note the recorded phosphorylation enrichment for LRNRVYEVPVE [SLC26A3_Y756] , which is 1.54

Just so you know, measured phosphorylation enrichment for HNQDGYSFLSR [LDLR_Y845_P848L_YF] came out at 1

Sure, the documented phosphorylation enrichment for LKFAIYFEVRE [LAMA2_Y1258_A1261V_YF] is 0.483

Lab note: LVQAEYWHDRI [PPT1_Y185_P189R] gave phosphorylation enrichment of 0.896

sequence IRTIDYRYTVS [IDS_Y497_W502S] , phosphorylation enrichment observed: 0.666

// recorded phosphorylation enrichment for SLQAHYDTPRS [DOK7_Y405_R402Q] : 0.479

sequence NVVHEYSSELE [FGB_Y172_N170H] , phosphorylation enrichment observed: 0.656

So, YAFQLYDLDRD [CHP2_Y123] ? Its phosphorylation enrichment was 0.765

So for RMLRKYQELMS [KRT74_Y425_E424K] , the logged phosphorylation enrichment turned out to be 0.397

Please fill in: phosphorylation enrichment reported for SDVWSYGVTMW [ZAP70_Y525] = 0.695

Entry AAVLNYKAWRD [GRIN2A_Y737_G740W] — recorded phosphorylation enrichment = 0.276

Item: ILGTFYETGSI [PAX2_Y73_R71T_YF] | phosphorylation enrichment: 0.541

phosphorylation enrichment in this record for DVSVVCSEVKT [FCRL4_Y493_Y493C] : 0.614

Data point: AELVRYFMEHH [PTPN11_Y80_Q79R_YF] ; phosphorylation enrichment = 0.526

Record summary for YGLQAYTKVKT [ALDH2_Y502_E504K] : reported phosphorylation enrichment = 0.462

The sequence TSFSGYRCHRH [NKAPL_Y94_Y96C_YF] showed phosphorylation enrichment equal to 0.486

Please fill in: phosphorylation enrichment reported for DRIVNYSRASI [ATP7A_Y1459] = 0.4

Form: sequence = EKQLLYSENKT [FRK_Y132] ; phosphorylation enrichment = 0.652

The sequence AFDNLYFWDQD [ERBB2_Y1221_YF] showed phosphorylation enrichment equal to 1.25

Recorded phosphorylation enrichment (sequence DRLASYPDKVR [KRT14_Y129_L130P] ): 0.356
